Biological target: Aromatase (Homo sapiens) (UniProt P11511)
Sequence (P11511 whole entry, looked up): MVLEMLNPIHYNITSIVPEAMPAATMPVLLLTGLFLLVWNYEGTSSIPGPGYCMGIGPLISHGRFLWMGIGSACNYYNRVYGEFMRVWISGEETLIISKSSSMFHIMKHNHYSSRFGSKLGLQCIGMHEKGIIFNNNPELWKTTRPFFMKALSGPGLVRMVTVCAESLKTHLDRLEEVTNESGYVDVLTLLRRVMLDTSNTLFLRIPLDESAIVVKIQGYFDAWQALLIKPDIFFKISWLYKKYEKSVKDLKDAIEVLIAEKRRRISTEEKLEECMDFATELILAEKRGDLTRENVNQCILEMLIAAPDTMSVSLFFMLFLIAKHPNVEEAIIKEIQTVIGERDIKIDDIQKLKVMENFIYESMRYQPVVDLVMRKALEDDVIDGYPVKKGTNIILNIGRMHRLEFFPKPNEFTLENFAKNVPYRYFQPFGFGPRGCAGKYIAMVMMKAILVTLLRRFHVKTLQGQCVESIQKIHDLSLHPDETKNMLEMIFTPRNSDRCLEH
Assay: qHTS assay to identify aromatase inhibitors (AID 743083); further: nearly all actives have a fitted effect of over 55% in size
Details: MCF-7 aro ERE, testosterone-driven ERE luciferase, 24 h; series mostly up to 70.3 µM
Records with an inconclusive call do not appear. The source made the active and inactive calls. The call rests on the fitted dose curve; in most records, active means well fitted inhibition curve with a large enough effect in the repeat runs; inconclusive means weak or mixed curves; inactive means no such curve, though single readings can be large or run the other way.
Labels: Yes for active, No for inactive

[[record]]
compound = "N#CSCSc1nc2ccccc2s1"
group = "Yes"

[[record]]
compound = "O=C(O)c1cccc(Cl)n1"
group = "No"

[[record]]
compound = "CNC(=O)c1cc(Oc2ccc(NC(=O)Nc3ccc(Cl)c(C(F)(F)F)c3)cc2)ccn1"
group = "Yes"

[[record]]
compound = "CSc1c(Cl)c(Cl)c(Cl)c(Cl)c1Cl"
group = "No"

[[record]]
compound = "Nc1cc(Cl)c([N+](=O)[O-])cc1O"
group = "No"

[[record]]
compound = "C=CC(=O)OCC(O)COc1ccccc1 (configuration not stated)"
group = "Yes"

[[record]]
compound = "Cc1ccc2ccc3cccc4ccc1c2c34"
group = "No"


###

Target: Peroxisome proliferator-activated receptor gamma (Homo sapiens)
Assay: qHTS assay to identify small molecule antagonists of the peroxisome proliferator-activated receptor gamma (PPARg) signaling pathway (AID 743191); further: nearly all actives have a fitted effect of over 30% in size
Conditions: HEK293H PPARg-UAS-bla, beta-lactamase ratio, antagonist, 17 h; series mostly up to 62.6 µM
Excerpt: U.S. Tox21 Program National Center for Advancing Translational Sciences [NCATS] NIH Chemical Genomics Center [NCGC] U.S. Environmental Protection Agency [EPA] National Institutes of Environmental Health Sciences [NIEHS] National Toxicology Program [NTP] U.S. Food and Drug Administration [FDA] […]
Records with an inconclusive call do not appear. Active and inactive are the calls of the source. Calls follow the shape of the full dose curve.
Possible outcomes: active, inactive

[[record]]
molecule = "O=C1OC(=O)c2cccc3cccc1c23"
group = "inactive"

[[record]]
molecule = "NC(=O)c1ccccc1N"
group = "inactive"

[[record]]
molecule = "C1CC(COCC2CO2)CCC1COCC1CO1 (stereo not given)"
group = "inactive"

[[record]]
molecule = "CCCCCCCOC(=O)c1ccc(O)cc1"
group = "active"

[[record]]
molecule = "C/C=C/C=N/NC(=O)c1ccncc1"
group = "inactive"

[[record]]
molecule = "Cc1c(C(=O)O)cccc1[N+](=O)[O-]"
group = "inactive"

[[record]]
molecule = "CC(C)=C1CC[C@@H](C)CC1=O"
group = "inactive"

[[record]]
molecule = "O=Nc1ccc(NO)cc1"
group = "inactive"

[[record]]
molecule = "CCC(=O)OCCc1ccccc1"
group = "inactive"

[[record]]
molecule = "COC(=O)CC(C)CCC=C(C)C (stereo not given)"
group = "inactive"

[[record]]
molecule = "CN(Cc1cc(Br)cc(Br)c1N)C1CCCCC1"
group = "inactive"

[[record]]
molecule = "O=C(c1ccccc1)c1cc(Cl)ccc1O"
group = "inactive"

[[record]]
molecule = "Cc1ccc2ccc3cccc4ccc1c2c34"
group = "inactive"

[[record]]
molecule = "C(=C/c1ccccc1)/c1ccccc1"
group = "inactive"

[[record]]
molecule = "CCCCCCCCCCCCCCCC"
group = "inactive"


###

Test: qHTS assay to identify small molecule antagonists of the glucocorticoid receptor (GR) signaling pathway - cell viability counter screen (AID 720693); further: nearly all actives have a fitted effect of over 55% in size
Details: GR-bla HeLa viability, CellTiter-Glo luminescence, 18 h, with 5 nM dexamethasone present; series mostly up to 58.5 µM
Inconclusive results are not listed. Calls of active or inactive are those of the source. Calls follow the shape of the dose curve; as a rule, active = well fitted cell-killing curve with a large enough effect in the repeat runs; inconclusive = weak or mixed curves, or effect the other way; inactive = no such curve, though single readings can be large or run the other way.
Possible outcomes: active, inactive

[[record]]
compound = "CSc1ccc2c(c1)N(CCC1CCCCN1C)c1ccccc1S2 (stereo not given)"
group = "active"

[[record]]
compound = "Cn1cnc2ncnc(N)c21"
group = "inactive"

[[record]]
compound = "CCC(=O)OCCc1ccccc1"
group = "inactive"

[[record]]
compound = "CC(COC(=O)c1ccccc1)OC(=O)c1ccccc1 (stereo not given)"
group = "inactive"

[[record]]
compound = "CCCCCCCCCCCCCOP(=O)(O)O"
group = "inactive"

[[record]]
compound = "Cc1cn[nH]c1"
group = "inactive"

[[record]]
compound = "CN(C)c1ccc(N=NS(=O)(=O)O)cc1"
group = "inactive"

[[record]]
compound = "CC(C)OC(=O)c1cc(C(=O)OC(C)C)cc([N+](=O)[O-])c1"
group = "inactive"

[[record]]
compound = "CC(=O)Nc1ccc(O)cc1"
group = "inactive"

[[record]]
compound = "CCN(CC)CCSC(=O)C(c1ccccc1)c1ccccc1"
group = "inactive"


###

Experiment: qHTS assay to identify small molecule agonists of the estrogen receptor beta (ER-beta) signaling pathway - cell viability counter screen (AID 1259380); further: nearly all actives have a fitted effect of over 30% in size
Details: ER-beta-bla HEK293T viability, CellTiter-Glo luminescence, 16 h; series mostly up to 92.4 µM
Inconclusive results are not listed. The source made the active and inactive calls. Calls come from the whole dose curve; as a rule, active = well fitted cell-killing curve with a large enough effect in the repeat runs; inconclusive = weak or mixed curves, or effect the other way; inactive = flat fitted curve, though single readings scatter.
Possible outcomes: active, inactive

[[record]]
compound = "CN1CCN(C2Cc3ccccc3Sc3ccc(Cl)cc32)CC1 (stereo not drawn)"
group = "active"

[[record]]
compound = "CCCCN(CCCC)CCC(O)c1cc2c(Cl)cc(Cl)cc2c2cc(C(F)(F)F)ccc12 (stereo not drawn)"
group = "active"

[[record]]
compound = "CCN(CC)CCCN(c1ccccc1)C1Cc2ccccc2C1"
group = "active"

[[record]]
compound = "OCCCCl"
group = "inactive"

[[record]]
compound = "C=C(C)CCCC"
group = "inactive"

[[record]]
compound = "c1ccc2c(c1)CCC2"
group = "inactive"

[[record]]
compound = "CCCCCCCC(C)=O"
group = "inactive"

[[record]]
compound = "O=C(O)c1cccc(Cl)n1"
group = "inactive"


###

Target: Nuclear receptor subfamily 1 group I member 3 (Homo sapiens) (UniProt Q14994)
Sequence (Q14994 whole entry, looked up): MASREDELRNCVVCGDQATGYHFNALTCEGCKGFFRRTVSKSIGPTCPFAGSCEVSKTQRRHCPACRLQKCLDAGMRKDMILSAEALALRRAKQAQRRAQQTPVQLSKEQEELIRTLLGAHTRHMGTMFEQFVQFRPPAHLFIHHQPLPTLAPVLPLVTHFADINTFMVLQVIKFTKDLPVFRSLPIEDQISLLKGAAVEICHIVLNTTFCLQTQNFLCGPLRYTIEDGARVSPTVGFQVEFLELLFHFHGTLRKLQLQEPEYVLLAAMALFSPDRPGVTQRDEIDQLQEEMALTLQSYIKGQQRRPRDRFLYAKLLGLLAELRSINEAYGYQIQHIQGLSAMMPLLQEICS
Assay: qHTS assay to identify small molecule antagonists of the constitutive androstane receptor (CAR) signaling pathway (AID 1224838);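 further: HepG2 cells stably expressing hCAR with CYP2B6 luciferase reporter stimulated by CITCO; on the % scale 0 is the no-effect control and ±100 the full control effect; nearly all actives have a fitted effect of over 40% in size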
Settings: HepG2-CYP2B6-hCAR luciferase, CITCO-stimulated, 24 h; series mostly up to 92.4 µM
Records with an inconclusive call do not appear. Activity calls are given as the source filed them. Calls follow the shape of the dose curve; as a rule, active = well fitted inhibition curve with a large enough effect in the repeat runs; inconclusive = weak or mixed curves, or effect the other way; inactive = no such curve, though single readings can be large or run the other way.
Measurement name: activity, negative = inhibition

[[record]]
given_smiles = "COc1cc(C(C)C)c2c(c1)S(=O)(=O)N(COc1cc(=O)n3cccc(OCCN4CCCCC4)c3n1)C2=O"
measurement_name = "activity, negative = inhibition"
recorded_value = "-19.4% [at 19 µM] (inactive)"

[[record]]
given_smiles = "CCN1CCN(c2cc(-c3ccc(F)cc3)c3c(n2)CCCCCC3)CC1"
measurement_name = "activity, negative = inhibition"
recorded_value = "16.5% [at 19 µM] (inactive)"

[[record]]
given_smiles = "O=C=NCc1cccc(CN=C=O)c1"
measurement_name = "activity, negative = inhibition"
recorded_value = "-4.42% [at 19 µM] (inactive)"

[[record]]
given_smiles = "O=S(O)O"
measurement_name = "activity, negative = inhibition"
recorded_value = "-9.95% [at 19 µM] (inactive)"

[[record]]
given_smiles = "N[C@@H](CSSC[C@H](N)C(=O)O)C(=O)O"
measurement_name = "activity, negative = inhibition"
recorded_value = "-10.8% [at 0.349 µM] (inactive)"

[[record]]
given_smiles = "C=CC(=C)CC/C=C(\\C)CCC=C(C)C"
measurement_name = "activity, negative = inhibition"
recorded_value = "8.18% [at 19 µM] (inactive)"


###

Molecular target: Luciferin 4-monooxygenase (Photinus pyralis)
Assay: qHTS assay to identify small molecule inhibitors of firefly luciferase (AID 1224835); further: on the % scale 0 is the no-effect control and ±100 the full control effect; nearly all actives have a fitted effect of over 25% in size
Settings: purified P. pyralis luciferase, luminescence inhibition; series mostly up to 115 µM
Inconclusive results are not listed. Active and inactive are the calls of the source. Calls follow the shape of the dose curve; as a rule, active = well fitted inhibition curve with a large enough effect in the repeat runs; inconclusive = weak or mixed curves; inactive = flat fitted curve, though single readings scatter.
Measurement name: outcome

[[record]]
given_smiles = "O=C[C@H](O)[C@H](O)[C@H](O)CO"
assayed_target = "Luciferin 4-monooxygenase (Photinus pyralis)"
measurement_name = "outcome"
recorded_value = "inactive"

[[record]]
given_smiles = "O=C1Nc2ccc(Cl)cc2[C@@](C#CC2CC2)(C(F)(F)F)O1"
assayed_target = "Luciferin 4-monooxygenase (Photinus pyralis)"
measurement_name = "outcome"
recorded_value = "inactive"

[[record]]
given_smiles = "Cc1cc2c(C(C)C)c(O)c(O)c(C=O)c2c(O)c1-c1c(C)cc2c(C(C)C)c(O)c(O)c(C=O)c2c1O"
assayed_target = "Luciferin 4-monooxygenase (Photinus pyralis)"
measurement_name = "outcome"
recorded_value = "inactive"


###

Experiment: qHTS assay to identify small molecule antagonists of the estrogen related receptor (ERR) signaling pathway from Tox21 library - cell viability counter screen (AID 1224834); further: nearly all actives have a fitted effect of over 30% in size
Conditions: ERR reporter cells viability, CellTiter-Fluor, 17.5 h; series mostly up to 92.4 µM
Results filed as inconclusive are left out. Active and inactive are the calls of the source. Calls follow the shape of the dose curve; as a rule, active = well fitted cell-killing curve with a large enough effect in the repeat runs; inconclusive = weak or mixed curves; inactive = flat fitted curve, though single readings scatter.
Possible outcomes: t for active, f for inactive

[[record]]
compound = "CSc1c(Cl)c(Cl)c(Cl)c(Cl)c1Cl"
group = "f"

[[record]]
compound = "CO[C@H]1C=CO[C@@]2(C)Oc3c(C)c(O)c4c(O)c(cc(O)c4c3C2=O)NC(=O)/C(C)=C\\C=C/[C@H](C)[C@H](O)[C@@H](C)[C@@H](O)[C@@H](C)[C@H](OC(C)=O)[C@@H]1C"
group = "t"

[[record]]
compound = "CCCCOc1ccc(C(=O)CCN2CCCCC2)cc1"
group = "f"

[[record]]
compound = "CCc1cccc(C)c1"
group = "f"

[[record]]
compound = "C[Si](C)O[Si](C)C"
group = "f"

[[record]]
compound = "CCc1c(Br)c(Br)c(Br)c(Br)c1Br"
group = "f"

[[record]]
compound = "CC(C)c1ccccc1N"
group = "f"

[[record]]
compound = "C[C@@]12C(=O)OC(=O)[C@]1(C)C1CCC2O1"
group = "t"

[[record]]
compound = "COc1ccccc1C=O"
group = "f"

[[record]]
compound = "O=C1OC(=O)c2cccc3cccc1c23"
group = "f"

[[record]]
compound = "CCN(CC)CCSC(=O)C(c1ccccc1)c1ccccc1"
group = "f"

[[record]]
compound = "C=CC(=O)OCCN(CC)CC"
group = "f"

[[record]]
compound = "O=C(Oc1ccccc1)c1cccc(C(=O)Oc2ccccc2)c1"
group = "f"

[[record]]
compound = "CCCCOCC"
group = "f"

[[record]]
compound = "CCCCCCCCCC(=O)N(C)C"
group = "f"

[[record]]
compound = "CC(=O)Nc1ccc(O)cc1"
group = "f"

[[record]]
compound = "Nc1ncnc2c1ncn2[C@@H]1O[C@H](COP(=O)(O)O)[C@@H](O)[C@H]1O"
group = "f"

[[record]]
compound = "Cc1cccc(C)n1"
group = "f"

[[record]]
compound = "CCN(CC)CCNc1ccc(CO)c2sc3ccccc3c(=O)c12"
group = "t"

[[record]]
compound = "CC1=CP(=O)(c2ccccc2)CC1 (centres undefined)"
group = "f"

[[record]]
compound = "COC(=O)C1=C(C)NC(C)=C(C(=O)OCCCN2CCC(c3ccccc3)(c3ccccc3)CC2)C1c1cccc([N+](=O)[O-])c1 (centres undefined)"
group = "t"

[[record]]
compound = "C=CC(=O)OCCC#N"
group = "f"

[[record]]
compound = "CCCCCCCCCCc1ccccc1"
group = "f"

[[record]]
compound = "CC(C)c1ccc(O)c(C(C)C)c1"
group = "f"

[[record]]
compound = "CC(C)C(=O)OCc1ccccc1"
group = "f"

[[record]]
compound = "CCCCCCCCCCCCN(CCO)CCO"
group = "t"

[[record]]
compound = "CC1CNCC(C)O1 (centres undefined)"
group = "f"

[[record]]
compound = "CC1=C(/C=C/C(C)=C/C=C/C(C)=C\\C=O)C(C)(C)CCC1"
group = "t"

[[record]]
compound = "CCc1c(C(=O)O)c(=O)cnn1-c1ccc(Cl)cc1"
group = "f"

[[record]]
compound = "N#CSCSc1nc2ccccc2s1"
group = "t"

[[record]]
compound = "CS(C)(=O)=O"
group = "f"

[[record]]
compound = "C[Si](C)(C)Cl"
group = "f"

[[record]]
compound = "O=C1NCN(c2ccccc2)C12CCN(CCCC(c1ccc(F)cc1)c1ccc(F)cc1)CC2"
group = "t"

[[record]]
compound = "CCc1cccc(CC)c1N(COC)C(=O)CS(=O)(=O)O"
group = "f"

[[record]]
compound = "CCc1ccc(C)nc1"
group = "f"

[[record]]
compound = "CCCCCCCCCCCC(=O)N(CC)CC"
group = "f"

[[record]]
compound = "CCCCCCCCCCCCCCCC"
group = "f"

[[record]]
compound = "CCOB(OCC)OCC"
group = "f"

[[record]]
compound = "Cc1nc(Nc2ncc(C(=O)Nc3c(C)cccc3Cl)s2)cc(N2CCN(CCO)CC2)n1"
group = "t"

[[record]]
compound = "COc1cccc(O)c1"
group = "f"

[[record]]
compound = "SCCCCCCCCS"
group = "f"

[[record]]
compound = "Brc1ccccc1-c1ccccc1"
group = "f"

[[record]]
compound = "O=S(=O)(O)CCCN1CCOCC1"
group = "f"

[[record]]
compound = "C=C1C(C)(C)[C@@]2(Cl)C(Cl)[C@]1(Cl)C(Cl)(Cl)C2(Cl)Cl (some centres undefined)"
group = "t"

[[record]]
compound = "CC(COC(=O)c1ccccc1)OC(=O)c1ccccc1 (centres undefined)"
group = "f"

[[record]]
compound = "CC(=O)c1ccccc1N"
group = "f"

[[record]]
compound = "Cc1ccc(O)cn1"
group = "f"

[[record]]
compound = "Cc1cccc(Br)c1"
group = "f"

[[record]]
compound = "CCC(C)c1ccccc1 (centres undefined)"
group = "f"

[[record]]
compound = "ClC/C=C\\CCl"
group = "f"

[[record]]
compound = "Clc1nc2ccccc2s1"
group = "f"

[[record]]
compound = "Oc1cc2ccccc2cc1O"
group = "f"

[[record]]
compound = "NC(=O)C(=O)N/N=C/c1ccc([N+](=O)[O-])o1"
group = "f"

[[record]]
compound = "CCOC(OCC)C(=O)c1ccccc1"
group = "f"

[[record]]
compound = "Cc1ccc2ccc3cccc4ccc1c2c34"
group = "f"

[[record]]
compound = "O=C(O)c1cccc(Cl)n1"
group = "f"

[[record]]
compound = "Cc1ccc(-n2[nH]c(C)c(N=Nc3cccc(-c4cccc(C(=O)O)c4)c3O)c2=O)cc1C"
group = "t"

[[record]]
compound = "CCOCOCC"
group = "f"

[[record]]
compound = "CCOC(=O)CC(C)O (centres undefined)"
group = "f"

